Ref: PubChem BioAssay AID330

Listed below: T/C values for each entry.
# System: P388 leukemia ip, CD2F1 mice, survival T/C
# testDetails: NCI In Vivo Anticancer Drug Screen. Data for tumor model P388 Leukemia (intraperitoneal) in CD2F1 (CDF1) mice
# testConditions: endpoint: median survival time; dose: 100.0 mg/kg/injection; schedule: Q01DX009 (ip); vehicle: saline with Tween-80; higher = longer survival
Inconclusive results and toxic doses are left out.

Worked examples follow.
Nc1nc(N)nc(N)n1 | 106 % of control
O=C(O)CSc1nnc2c3ccccc3c3ccccc3c2n1 | 87 % of control
CCCCCCCCCCCCCCCCN1c2ccccc2C(C)(C)C12C=Cc1cccc([N+](=O)[O-])c1O2 (stereo unspecified) | 93 % of control
CCCCCCCc1c(C)[nH]c2cc(OC)ccc2c1=O | 95 % of control
CCCCN1C(=O)/C(=C/c2ccc(OC)cc2)SC1=S | 94 % of control

Lab note: next molecule to report on.
Q. Enter reported T/C observed with P388 leukemia ip, CD2F1 mice, survival T/C for `CCOc1cc(/C=C2\SC(=O)N(CC)C2=O)ccc1O`
A. 109 % of control

* * *

compounds and their reported T/C
# Tested on: P388 leukemia ip, CD2F1 mice, survival T/C
# testDetails: NCI In Vivo Anticancer Drug Screen. Data for tumor model P388 Leukemia (intraperitoneal) in CD2F1 (CDF1) mice
# testConditions: endpoint: median survival time; dose: 200.0 mg/kg/injection; schedule: Q01DX005 (ip); vehicle: saline; higher = longer survival
Toxic doses and inconclusive results are not listed. Peptide text beside a SMILES is read from it. * marks the point of attachment. Boc = CC(C)(C)OC(=O)*

# example entries with known answers
COc1cc(NC(C)CN(CC(C)C)CC(C)C)c2ncccc2c1Cl (configuration not stated) | 116 % of control
O=C1c2cccnc2C(=O)N1CCO | 101 % of control
OCc1ccc(O)c(O)c1 | 123 % of control
Cc1cc(N=Nc2ccc(NC(=O)c3ccc(N)cc3)cc2C)ccc1N=Nc1ccc2cc(S(=O)(=O)O)cc(S(=O)(=O)O)c2c1 | 121 % of control
CC1CC(=O)NC(N)=N1 (configuration not stated) | 104 % of control
CC(C)(C)OC(=O)NCC(=O)NCC(=O)O (Boc-Gly-Gly-OH) | 101 % of control

In the following, a different compound is considered.
Q. Sample COC(=O)C(C)(O)C(C)C1CO1 (configuration not stated) — what was its T/C?
A. 121 % of control

* * *

# Test system: P388 leukemia ip, CD2F1 mice, survival T/C
# testDetails: NCI In Vivo Anticancer Drug Screen. Data for tumor model P388 Leukemia (intraperitoneal) in CD2F1 (CDF1) mice
# testConditions: endpoint: median survival time; dose: 240.0 mg/kg/injection; schedule: Q01DX005 (ip); vehicle: saline with Tween-80; higher = longer survival
# Method: The antitumor activity of compounds was measured in mice bearing transplantable tumors. Survival or tumor size were measured and the results are expressed as the measurement made in the treated group (T) divided by the measurement made in the vehicle treated control group (C). The tumor model used in this assay is P388 Leukemia (intraperitoneal) in CD2F1 (CDF1) mice
Inconclusive results and toxic doses are left out.
Listed compounds paired with reported T/C

Some compounds with recorded T/C:
Nc1nc(N)c2[nH]c(CNc3ccc(C(=O)O)cc3)nc2n1 | 86 % of control
COC(=O)c1cccc2c(N)c(N)cc(C(=O)OC)c12 | 106 % of control
O=c1[nH]c2nc(SCc3ccccc3)n(Cc3ccccc3)c2c(=O)n1OS(=O)(=O)c1ccccc1 | 90 % of control
O=C1NC(O)(c2ccccc2)c2cnncc21 (configuration not stated) | 93 % of control
O=C1c2cc(O)c(O)cc2C(=O)c2cc3c(cc21)OCO3 | 90 % of control
NC(=O)C(N)CCc1ccccc1 (configuration not stated) | 96 % of control
CC(Cl)C(=O)Nc1cc2ccccc2oc1=O (configuration not stated) | 93 % of control
CC(C)(C)N1OC1C(Cl)(Cl)Cl (configuration not stated) | 104 % of control
CSc1nc2c(nnn2C2OCC(O)C(O)C2O)c(=O)n1C (configuration not stated) | 96 % of control
CSc1nc(NC2OCC(OC(C)=O)C(OC(C)=O)C2OC(C)=O)c(N=CC=Nc2c(NC3OCC(OC(C)=O)C(OC(C)=O)C3OC(C)=O)nc(SC)n(C)c2=O)c(=O)n1C (configuration not stated) | 92 % of control

Q. Which T/C reading was recorded for the compound `CC(C)(C)c1cc(-n2nc3ccccc3[n+]2[O-])c(O)c(C(C)(C)C)c1` ?
A. 91 % of control

Q. Need T/C of `COc1ccc(C2(c3ccc(OC)cc3)ON(C(c3ccccc3)c3ccccc3)C2=O)cc1` , thanks.
A. 89 % of control

Q. Need T/C, item `COc1ccc2c(c1)CCc1cc(OC)ccc1/[N+]([O-])=[N+]\2[O-]`
A. 101 % of control

Q. Which T/C is reported for this compound? `O=C(Nc1ccc(Cl)cc1)Nc1nnc2nc(CC(=O)c3ccccc3)c(=O)[nH]n12`
A. 91 % of control

Q. Request the reported T/C associated with `CO/N=C1\N=C(C)C(=N)N1c1ccccc1`
A. 107 % of control

Q. Query: T/C; subject: COc1ccc(NC(=O)CCC2=CC(=O)CC(c3ccccc3)O2)cc1 (configuration not stated)
A. 104 % of control
